System: P-388 leukemic cells
Run description: Antitumor activity against mouse leukemia P-388, increase in life span (ILS)
Type: in vivo
Parameters: dose or concentration left out as unconfirmed
Experimental setup: P388, ip, 120 h, Table 2, i.p., once a day for 5 days, BDF1 mice
For each record, write down the corresponding ILS.
Numbers only, in %.

// below: answered compounds
Q: Given the entry CCCCCCCCCCCCCCCCCCOCC(COP(=O)(O)OCC1=C[C@@H](n2cnc3c(N)ncnc32)[C@H](O)[C@@H]1O)OCCCCCCCCCCCCCCCCCC (stereo partly shown) , report its measured ILS.
A: 31

Q: Next compound: CCCCCCCC/C=C\CCCCCCCCOCC(COP(=O)(O)OC[C@H]1O[C@@H](n2cc(F)c(=O)[nH]c2=O)[C@H](O)[C@@H]1O)OCCCCCCCC/C=C\CCCCCCCC (stereo partly shown)
A: 76

Q: Now try CCCCCCCCCCCCCCCCCCOCC(COP(=O)(O)OC[C@H]1O[C@@H](n2cc(F)c(N)nc2=O)[C@@H](O)[C@@H]1O)OCCCCCCCCCCCCCCCCCC (stereo partly shown) .
A: 61

Further cases:
Q: Look at this compound and give its reported ILS. CCCCCCCCCCCCCCCCCCOCC(COP(=O)(O)OC[C@H]1O[C@@H](n2cc(F)c(=O)[nH]c2=O)[C@H](O)[C@@H]1O)OCCCCCCCCCCCCCCCCCC (stereo partly shown)
A: 31

###

Tested on: P-388 leukemic cells
Run description: Antitumor activity against mouse leukemia P-388, increase in life span (ILS)
Format: in vivo
Parameters: dose or concentration left out as unconfirmed
Experimental setup: P388, ip, 120 h, Table 2, i.p., once a day for 5 days, BDF1 mice
Measured quantity: ILS (%)
Answers are plain numbers, in %.

Q: Query: ILS; subject: CCCCCCCCCCCCCCCCOCC(COP(=O)(O)OC[C@H]1O[C@@H](n2cc(F)c(=O)[nH]c2=O)[C@H](O)[C@@H]1O)OCCCCCCCCCCCCCCCC (some centres unmarked)
A: 127

Q: Next molecule up: CCCCCCCC/C=C\CCCCCCCCOCC(COP(=O)(O)OC[C@H]1O[C@@H](n2cc(F)c(N)nc2=O)[C@@H](O)[C@@H]1O)OCCCCCCCC/C=C\CCCCCCCC (some centres unmarked)
A: 148

Q: Now consider CCCCCCCC/C=C\CCCCCCCCOCC(COP(=O)(O)OCC1=C[C@@H](n2cnc3c(N)ncnc32)[C@H](O)[C@@H]1O)OCCCCCCCC/C=C\CCCCCCCC (some centres unmarked) .
A: 26

Q: Then this molecule: CCCCCCCCCCCCCCCCOCC(COP(=O)(O)OC[C@H]1O[C@@H](n2cc(F)c(N)nc2=O)[C@@H](O)[C@@H]1O)OCCCCCCCCCCCCCCCC (some centres unmarked)
A: 152

New cases:
Q: Name the recorded ILS for CCCCCCCCCCCCCCCCOCC(COP(=O)(O)OCC1=C[C@@H](n2cnc3c(N)ncnc32)[C@H](O)[C@@H]1O)OCCCCCCCCCCCCCCCC (some centres unmarked) .
A: 34.9
